test system: 313798-341-R-J2-PDC spheroids, viability; test: Anticancer human tumor 313798-341-R-J2-PDC patient-derived cervical squamous cell carcinoma cell line growth inhibition [PI3K]; conditions: second compound 1 µM; first compound 10 µM; spheroids with HUVEC and MSC; active means viability on the fitted dose curve at most 10% of control; inactive means the rest;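 further: spheroids exposed to compounds for seven days; 100% = DMSO vehicle control viability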
Classes used: label 1 = active, label 0 = inactive

# molecule, assigned-category
rows = [
    ("CC(C)NCC(C(=O)N1CCN(c2ncnc3c2C(C)CC3O)CC1)c1ccc(Cl)cc1 (stereo not given) + COc1c(OCCCN2CCOCC2)ccc2c3n(c(=NC(=O)c4cnc(N)nc4)nc12)CCN3", "label 1"),
    ("CC1(C)CCC(CN2CCN(c3ccc(C(=O)NS(=O)(=O)c4ccc(NCC5CCOCC5)c([N+](=O)[O-])c4)c(Oc4cnc5[nH]ccc5c4)c3)CC2)=C(c2ccc(Cl)cc2)C1 + CC(Nc1ccc2c(c1)OCCn1cc(N3C(=O)OCC3C(F)F)nc1-2)C(N)=O", "label 0"),
    ("C[C@@H](NC(=O)c1ncnc(N)c1Cl)c1ncc(C(=O)Nc2cc(C(F)(F)F)c(Cl)cn2)s1 + COc1c(OCCCN2CCOCC2)ccc2c3n(c(=NC(=O)c4cnc(N)nc4)nc12)CCN3", "label 0"),
    ("C[C@@H](NC(=O)c1ncnc(N)c1Cl)c1ncc(C(=O)Nc2cc(C(F)(F)F)c(Cl)cn2)s1 + CC(Nc1ccc2c(c1)OCCn1cc(N3C(=O)OCC3C(F)F)nc1-2)C(N)=O", "label 0"),
    ("Cn1ncc(Cl)c1-c1cc(C(=O)NC(CN)Cc2cccc(F)c2)sc1Cl (stereo not given) + CC(Nc1ccc2c(c1)OCCn1cc(N3C(=O)OCC3C(F)F)nc1-2)C(N)=O", "label 0"),
]
